# System: Clinical isolates 07-W3-45 (VRE)
# Assay Comment: In vitro antibacterial activity (MIC) against VRE
# Format: cell-based, Vancomycin-resistant Enterococcus
# Condition Notes: clinically isolated drug-resistant strain 07-W3-45 from Shanghai Huashan Hospital
Entries and their MIC Clinical isolates 07-W3-45 (VRE)
Measured Endpoint: MIC Clinical isolates 07-W3-45 (VRE)

* CNC(CC(C)C)C(=O)NC1C(=O)NC(CC(N)=O)C(=O)NC2C(=O)NC3C(=O)NC(C(=O)NC(C(=O)O)c4cc(O)cc(O)c4-c4cc3ccc4O)C(OC3CC(C)(N)C(O)C(C)O3)c3ccc(c(Cl)c3)Oc3cc2cc(c3OC2OC(CO)C(O)C(O)C2OC2CC(C)(NCc3ccc(OCCCc4ccccc4)cc3)C(O)C(C)O2)Oc2ccc(cc2Cl)C1O (stereo not drawn) | 1 µg/mL
* CNC(CC(C)C)C(=O)NC1C(=O)NC(CC(N)=O)C(=O)NC2C(=O)NC3C(=O)NC(C(=O)NC(C(=O)O)c4cc(O)cc(O)c4-c4cc3ccc4O)C(OC3CC(C)(N)C(O)C(C)O3)c3ccc(c(Cl)c3)Oc3cc2cc(c3OC2OC(CO)C(O)C(O)C2OC2CC(C)(NCc3ccc(OCc4ccc(C)cc4)cc3)C(O)C(C)O2)Oc2ccc(cc2Cl)C1O (stereo not drawn) | 2 µg/mL
* CNC(CC(C)C)C(=O)NC1C(=O)NC(CC(N)=O)C(=O)NC2C(=O)NC3C(=O)NC(C(=O)NC(C(=O)O)c4cc(O)cc(O)c4-c4cc3ccc4O)C(OC3CC(C)(N)C(O)C(C)O3)c3ccc(c(Cl)c3)Oc3cc2cc(c3OC2OC(CO)C(O)C(O)C2OC2CC(C)(NCc3ccc(OCCc4ccc(F)cc4)cc3)C(O)C(C)O2)Oc2ccc(cc2Cl)C1O (stereo not drawn) | 1 µg/mL

====

# System: Clinical isolates 07-W3-45 (VRE)
# Assay Comment: In vitro antibacterial activity (MIC) against VRE
# Assay type: cell-based, Vancomycin-resistant Enterococcus
# Condition Notes: clinically isolated drug-resistant strain 07-W3-45 from Shanghai Huashan Hospital
Measured Endpoint: MIC Clinical isolates 07-W3-45 (VRE) (µg/mL)

• CNC(CC(C)C)C(=O)NC1C(=O)NC(CC(N)=O)C(=O)NC2C(=O)NC3C(=O)NC(C(=O)NC(C(=O)O)c4cc(O)cc(O)c4-c4cc3ccc4O)C(OC3CC(C)(N)C(O)C(C)O3)c3ccc(c(Cl)c3)Oc3cc2cc(c3OC2OC(CO)C(O)C(O)C2OC2CC(C)(NCc3ccc(SCc4ccccc4)cc3)C(O)C(C)O2)Oc2ccc(cc2Cl)C1O (stereo not drawn) = 8
• CNC(CC(C)C)C(=O)NC1C(=O)NC(CC(N)=O)C(=O)NC2C(=O)NC3C(=O)NC(C(=O)NC(C(=O)O)c4cc(O)cc(O)c4-c4cc3ccc4O)C(OC3CC(C)(N)C(O)C(C)O3)c3ccc(c(Cl)c3)Oc3cc2cc(c3OC2OC(CO)C(O)C(O)C2OC2CC(C)(NCc3ccc(OCc4ccc(Cl)cc4)cc3)C(O)C(C)O2)Oc2ccc(cc2Cl)C1O (stereo not drawn) = 2
• CNC(CC(C)C)C(=O)NC1C(=O)NC(CC(N)=O)C(=O)NC2C(=O)NC3C(=O)NC(C(=O)NC(C(=O)O)c4cc(O)cc(O)c4-c4cc3ccc4O)C(OC3CC(C)(N)C(O)C(C)O3)c3ccc(c(Cl)c3)Oc3cc2cc(c3OC2OC(CO)C(O)C(O)C2OC2CC(C)(NCc3ccc(OCCc4ccc(C(F)(F)F)cc4)cc3)C(O)C(C)O2)Oc2ccc(cc2Cl)C1O (stereo not drawn) = 0.5
• CNC(CC(C)C)C(=O)NC1C(=O)NC(CC(N)=O)C(=O)NC2C(=O)NC3C(=O)NC(C(=O)NC(C(=O)O)c4cc(O)cc(O)c4-c4cc3ccc4O)C(OC3CC(C)(N)C(O)C(C)O3)c3ccc(c(Cl)c3)Oc3cc2cc(c3OC2OC(CO)C(O)C(O)C2OC2CC(C)(NCc3ccc(NCCCc4ccc(Cl)cc4)cc3)C(O)C(C)O2)Oc2ccc(cc2Cl)C1O (stereo not drawn) = 0.25
• CNC(CC(C)C)C(=O)NC1C(=O)NC(CC(N)=O)C(=O)NC2C(=O)NC3C(=O)NC(C(=O)NC(C(=O)O)c4cc(O)cc(O)c4-c4cc3ccc4O)C(OC3CC(C)(N)C(O)C(C)O3)c3ccc(c(Cl)c3)Oc3cc2cc(c3OC2OC(CO)C(O)C(O)C2OC2CC(C)(NCc3ccc(SCc4ccc(Cl)cc4)cc3)C(O)C(C)O2)Oc2ccc(cc2Cl)C1O (stereo not drawn) = 1
• CNC(CC(C)C)C(=O)NC1C(=O)NC(CC(N)=O)C(=O)NC2C(=O)NC3C(=O)NC(C(=O)NC(C(=O)O)c4cc(O)cc(O)c4-c4cc3ccc4O)C(OC3CC(C)(N)C(O)C(C)O3)c3ccc(c(Cl)c3)Oc3cc2cc(c3OC2OC(CO)C(O)C(O)C2OC2CC(C)(NCc3ccc(OCCc4ccc(Br)cc4)cc3)C(O)C(C)O2)Oc2ccc(cc2Cl)C1O (stereo not drawn) = 1
